Test system: NCI/ADR-RES ovarian
Assay: NCI tumour cell line growth inhibition, 48 h
readoutLabel: TGI

compound=CSC(SC)=C1C(=O)N(c2ccccc2)N=C1C valuereported="> 100 µM"

Data request: Consider the compound O/C(=C\c1nc2ccccc2nc1NC12CC3CC(CC(C3)C1)C2)c1ccc(Br)cc1 and give its measured TGI.
Data returned: > 10 µM

Data request: Consider the compound O=C1CC(Sc2nc3ccc(I)cc3c(=O)n2Cc2ccccc2)C(=O)NN1 (stereo not given) and give its measured TGI.
Data returned: 52.1 µM

Data request: Consider the compound CCOC(=O)C1(C(=O)OCC)CCCN1C(=O)[C@H](CNC(=O)OC(C)(C)C)NC(=O)OCc1ccccc1 and give its measured TGI.
Data returned: > 100 µM

Data request: Consider the compound Clc1ccc(N=CNc2ccc(-c3nc4ccccc4o3)cc2)cc1 and give its measured TGI.
Data returned: 48.1 µM

---

Tested on: M14 melanoma
Experiment: NCI tumour cell line growth inhibition, 48 h
readoutLabel: TGI

Below are worked cases with known answers.
compound=CN1CCN(c2ccc(Nc3ncc4cc(C#N)c(=O)n(C5CCCC5)c4n3)cc2)CC1 testedtarget="M14 melanoma" readoutlabel=TGI valuereported="> 100 µM"
compound="O=C1CCCc2cc3c(cc21)CC1(C3)Cc2ccc3c(c2C1)C(=O)CCC3 (stereo unspecified)" testedtarget="M14 melanoma" readoutlabel=TGI valuereported="36.3 µM"
compound=N#CC(=N)c1ncn(-c2ccccc2N)c1N testedtarget="M14 melanoma" readoutlabel=TGI valuereported="> 100 µM"
compound=COc1ccc(N=Nc2c3c(c(O)c4ccccc24)CCC(C)(C)O3)cc1 testedtarget="M14 melanoma" readoutlabel=TGI valuereported="39.3 µM"
compound=O=C1C(Cl)=C(Nc2ccccc2O)C(=O)N1Cc1ccccc1 testedtarget="M14 melanoma" readoutlabel=TGI valuereported="32.3 µM"

Data request: Consider the compound CCN(CC)CCNC(=O)c1ccc(C)c(OCc2ccccc2)c1[N+](=O)[O-] and give its measured TGI.
Data returned: 32.3 µM

Data request: Consider the compound COC(=O)c1cc2c(cc1CC(Cc1ccc3c(c1)CCC3)C(=O)OC)CCC2 (stereo unspecified) and give its measured TGI.
Data returned: > 100 µM

Data request: Consider the compound CCCCc1c2c(nc3c1CCC/C3=C\c1ccccc1)/C(=C/c1ccccc1)CCC2 and give its measured TGI.
Data returned: > 100 µM

Data request: Consider the compound C=C1C(=O)OC2/C=C(/C)C3(O)OC(C)(CC(OC(=O)C(C)C)C12)CC3OC(C)=O (stereo unspecified) and give its measured TGI.
Data returned: 68 µM

Data request: Consider the compound COC(=O)C1=C(O)C(C(=O)OC)[C@@]2(O)[C@@H](C(=O)OC)[C@H](C)[C@@H](C)[C@@H]1[C@@H]2C(=O)OC (stereo partly specified) and give its measured TGI.
Data returned: > 100 µM

Data request: Consider the compound O=C1CSC(c2ccc(-c3nc4ccccc4s3)cc2)=N1 and give its measured TGI.
Data returned: > 100 µM

Data request: Consider the compound CCOC(=O)[C@@H]1ON2O[C@@H](OC3CCCC3(c3ccccc3)c3ccccc3)C[C@H]3OC(=O)[C@@H]1C32 (stereo partly specified) and give its measured TGI.
Data returned: 51.9 µM

Data request: Consider the compound Cc1cn([C@H]2C[C@](C)(CO)N(C)O2)c(=O)[nH]c1=O and give its measured TGI.
Data returned: > 100 µM

Data request: Consider the compound O=S1(=O)OCCOS(=O)(=O)C1Cl and give its measured TGI.
Data returned: > 100 µM

Data request: Consider the compound O=C(CNCc1ccccc1)Oc1c(Cl)c(Cl)c(Cl)c(Cl)c1Cl and give its measured TGI.
Data returned: > 100 µM

Data request: Consider the compound COc1cc(C2C(C(=O)Nc3cc(F)c(F)cc3F)=C(C)NC(C)=C2C(=O)Nc2cc(F)c(F)cc2F)ccc1O and give its measured TGI.
Data returned: > 100 µM
